- Assay Overview: Metabolic stability in human liver microsomes assessed as half life at 1 uM and measured upto 60 mins in presence of NADPH by LC-MS/MS analysis
- Type: ADME, Microsome
Measurement Kind: half-life at 1 µM

Query C[C@@H]1Cc2c(ccc3[nH]ncc23)[C@@H](c2c(F)cc(N3CCC4(CCN(C(=O)CN5Cc6cc7c(cc6C5)C(=O)N(C5CCC(=O)NC5=O)C7=O)CC4)CC3)cc2F)N1CC(F)F (stereo partly specified) yields half-life at 1 µM of > 1 h

----------
- Tested Target: Protein cereblon/Estrogen receptor (Homo sapiens, UniProt P03372+Q96SW2)
- Sequence (P03372 whole entry): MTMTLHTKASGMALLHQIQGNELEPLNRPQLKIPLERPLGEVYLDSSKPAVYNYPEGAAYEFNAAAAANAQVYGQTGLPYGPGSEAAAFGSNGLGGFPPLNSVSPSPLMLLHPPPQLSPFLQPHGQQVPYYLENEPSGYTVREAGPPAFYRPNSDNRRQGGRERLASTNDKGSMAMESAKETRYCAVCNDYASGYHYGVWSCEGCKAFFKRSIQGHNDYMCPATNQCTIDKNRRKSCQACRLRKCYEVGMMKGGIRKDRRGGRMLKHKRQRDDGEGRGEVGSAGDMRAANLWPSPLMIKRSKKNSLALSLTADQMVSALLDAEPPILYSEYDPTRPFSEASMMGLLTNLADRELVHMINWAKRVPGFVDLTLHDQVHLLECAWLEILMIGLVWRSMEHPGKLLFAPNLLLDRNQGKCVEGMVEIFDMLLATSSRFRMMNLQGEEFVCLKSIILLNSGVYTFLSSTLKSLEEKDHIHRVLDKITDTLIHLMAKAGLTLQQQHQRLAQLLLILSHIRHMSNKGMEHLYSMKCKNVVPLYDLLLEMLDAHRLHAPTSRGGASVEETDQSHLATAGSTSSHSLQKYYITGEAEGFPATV
- Sequence (Q96SW2 whole entry): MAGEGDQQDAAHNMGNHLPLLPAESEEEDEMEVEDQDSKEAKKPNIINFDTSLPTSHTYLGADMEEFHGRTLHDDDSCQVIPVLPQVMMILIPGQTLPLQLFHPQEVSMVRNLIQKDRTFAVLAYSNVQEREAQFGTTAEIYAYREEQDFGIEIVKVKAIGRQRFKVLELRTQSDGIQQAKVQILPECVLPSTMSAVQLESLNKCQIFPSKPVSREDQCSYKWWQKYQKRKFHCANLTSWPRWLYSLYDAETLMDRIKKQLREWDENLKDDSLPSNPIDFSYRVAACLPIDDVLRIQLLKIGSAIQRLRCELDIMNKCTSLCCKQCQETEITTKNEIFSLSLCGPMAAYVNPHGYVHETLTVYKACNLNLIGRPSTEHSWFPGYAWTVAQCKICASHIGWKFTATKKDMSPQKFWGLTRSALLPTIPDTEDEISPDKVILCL
- Assay Overview: Protac activity at human ERalpha in human MCF7 cells assessed as protein degradation incubated for 12 hrs by ICW blot assay
- Assay type: cell-based
Response field label: string, one of class 1 (DC50 strictly below 0.005 µM) or class 0.

- Compound: "O=C1CCC(N2C(=O)c3cc4c(cc3C2=O)CN(CCCC2CCN(c3ccc([C@@H]5c6ccc(O)cc6CC[C@@H]5c5ccccc5)cc3)CC2)C4)C(=O)N1 (stereo partly specified)"
  Qualitative Label: "class 0"
- Compound: "O=C1CCC(N2C(=O)c3cc4c(cc3C2=O)CN(C2CN(CC3CCN(c5ccc([C@@H]6c7ccc(O)cc7CC[C@@H]6c6ccccc6)cc5)CC3)C2)C4)C(=O)N1 (stereo partly specified)"
  Qualitative Label: "class 0"
- Compound: "O=C1CCC(N2C(=O)c3cc4c(cc3C2=O)CN(CC(=O)N2CC3(C2)CN(c2ccc([C@@H]5c6ccc(O)cc6CC[C@@H]5c5ccccc5)cc2)C3)C4)C(=O)N1 (stereo partly specified)"
  Qualitative Label: "class 0"
- Compound: "O=C1CCC(N2C(=O)c3cc4c(cc3C2=O)CN(CC2CN(CC3CCN(c5ccc([C@@H]6c7ccc(O)cc7CC[C@@H]6c6ccccc6)cc5)CC3)C2)C4)C(=O)N1 (stereo partly specified)"
  Qualitative Label: "class 0"
- Compound: "O=C1CCC(N2C(=O)c3cc4c(cc3C2=O)CN(CC(=O)N2CCC3(CC2)CCN(c2ccc([C@@H]5c6ccc(O)cc6CC[C@@H]5c5ccccc5)cc2)CC3)C4)C(=O)N1 (stereo partly specified)"
  Qualitative Label: "class 0"

Would you kindly verify if DC50 of O=C1CCC(N2C(=O)c3cc4c(cc3C2=O)CN(CC(=O)N2CCC3(CCN(c5ccc([C@@H]6c7ccc(O)cc7CC[C@@H]6c6ccccc6)cc5)CC3)C2)C4)C(=O)N1 (stereo partly specified) is strictly less than 0.005 µM? class 1

Would you kindly verify if DC50 of O=C1CCC(N2C(=O)c3cc4c(cc3C2=O)CN(C2CCN(CC3CN(c5ccc([C@@H]6c7ccc(O)cc7CC[C@@H]6c6ccccc6)cc5)C3)CC2)C4)C(=O)N1 (stereo partly specified) is strictly less than 0.005 µM? class 0

Would you kindly verify if DC50 of O=C1CCC(N2C(=O)c3cc4c(cc3C2=O)CN(C(=O)C2CCN(CC3CN(c5ccc([C@@H]6c7ccc(O)cc7CC[C@@H]6c6ccccc6)cc5)C3)CC2)C4)C(=O)N1 (stereo partly specified) is strictly less than 0.005 µM? class 0

----------
- Assay Overview: Clearance in Sprague-Dawley rat at 1 mg/kg, iv and measured upto 24 hrs by LC-MS/MS analysis
- Particulars: in vivo
Measurement Kind: clearance at 24 h (mL/min/kg)
Reply numerically in mL/min/kg, unit not repeated.

Worked cases, answers included:
- Molecule: "CN1Cc2cc3c(cc2C1)C(=O)N(C1CCC(=O)NC1=O)C3=O (stereo unspecified)"
  Measurement Kind: "clearance at 24 h"
  Numeric Result: 29.2
- Molecule: "C[C@@H]1Cc2c(ccc3[nH]ncc23)[C@@H](c2c(F)cc(N3CCC4(CCN(C(=O)CN5Cc6cc7c(cc6C5)C(=O)N(C5CCC(=O)NC5=O)C7=O)CC4)CC3)cc2F)N1CC(F)F (stereo partly specified)"
  Measurement Kind: "clearance at 24 h"
  Numeric Result: 7.4
- Molecule: "O=C1CCC(N2C(=O)c3cc4c(cc3C2=O)CN(C2CCN(CC3CCN(c5ccc([C@@H]6c7ccc(O)cc7CC[C@@H]6c6ccccc6)cc5)CC3)CC2)C4)C(=O)N1 (stereo partly specified)"
  Measurement Kind: "clearance at 24 h"
  Numeric Result: 25.7
- Molecule: "O=C1CCC(N2C(=O)c3cc4c(cc3C2=O)CN(CC(=O)N2CCC3(CC2)CCN(c2ccc([C@@H]5c6ccc(O)cc6CC[C@@H]5c5ccccc5)cc2)CC3)C4)C(=O)N1 (stereo partly specified)"
  Measurement Kind: "clearance at 24 h"
  Numeric Result: 20
- Molecule: "O=C1CCC(N2C(=O)c3cc4c(cc3C2=O)CN(C2CCN(C(=O)C3CCN(c5ccc([C@@H]6c7ccc(O)cc7CC[C@@H]6c6ccccc6)cc5)CC3)CC2)C4)C(=O)N1 (stereo partly specified)"
  Measurement Kind: "clearance at 24 h"
  Numeric Result: 23.1

In the following, a different molecule is considered.
Query C[C@@H]1Cc2c(ccc3[nH]ncc23)[C@@H](c2ccc(N3CCC4(CCN(C(=O)CN5Cc6cc7c(cc6C5)C(=O)N(C5CCC(=O)NC5=O)C7=O)CC4)CC3)cn2)N1CC(F)(F)F (stereo partly specified) yields clearance at 24 h of 27

----------
- Assay Overview: Plasma protein binding in monkey
- Format: ADME, cell-free, Macaca mulatta
- Particulars: rhesus monkey, read-out: PPB (converted)
Measurement Kind: fraction unbound
Give the figure by itself; no unit, no explanation.

Query CN1Cc2cc3c(cc2C1)C(=O)N(C1CCC(=O)NC1=O)C3=O (stereo unspecified) yields fraction unbound of 0.856

----------
- Assay Overview: Plasma concentration in Sprague-Dawley rat at 3 mg/kg,po and mesured after 6 hrs by LC-MS/MS analysis
- Assay type: ADME, organism-based
Measurement Kind: concentration at 6 h (ng/mL)
Reply numerically in ng/mL, unit not repeated.

- Compound: "C[C@@H]1Cc2c([nH]c3ccccc23)[C@@H](c2c(F)cc(N3CCC4(CCN(C(=O)CN5Cc6cc7c(cc6C5)C(=O)N(C5CCC(=O)NC5=O)C7=O)CC4)CC3)cc2F)N1CC(F)(F)CO (some centres not stated)"
  Unit Annotation: "ng/mL"
  Numeric Result: 3

In the following, a different compound is considered.
Query C[C@@H]1Cc2c([nH]c3ccccc23)[C@@H](c2c(F)cc(N3CCC4(CCN(C(=O)CN5Cc6cc7c(cc6C5)C(=O)N(C5CCC(=O)NC5=O)C7=O)CC4)CC3)cc2F)N1CC(C)(C)F (some centres not stated) yields concentration at 6 h of 8.3

----------
- Assay Overview: Drug concentration in plasma of CB17 SCID mouse xenografted with human MCF7 cells harboring ESR1 Y537S mutant at 30 mg/kg, po qd for 3 days and measured after 6 hrs last dose by LC-MS/MS analysis
- Assay type: ADME, organism-based
- Particulars: time 3 day
Measurement Kind: concentration at 72 h (ng/mL)
Reply numerically in ng/mL, unit not repeated.

Query C[C@@H]1Cc2c(ccc3[nH]ncc23)[C@@H](c2c(F)cc(N3CCC4(CCN(C(=O)CN5Cc6cc7c(cc6C5)C(=O)N(C5CCC(=O)NC5=O)C7=O)CC4)CC3)cc2F)N1CC(F)F (stereo partly specified) yields concentration at 72 h of 2830

----------
Measured half-life at 24 h by item
- Assay Overview: Half life in Sprague-Dawley rat at 3 mg/kg, po and measured upto 24 hrs by LC-MS/MS analysis
- Particulars: in vivo
Reply numerically in h, unit not repeated.

- Compound: "C[C@@H]1Cc2c(ccc3[nH]ncc23)[C@@H](c2c(F)cc(N3CCC4(CCN(C(=O)CN5Cc6cc7c(cc6C5)C(=O)N(C5CCC(=O)NC5=O)C7=O)CC4)CC3)cc2F)N1CC(F)F (some centres not stated)"
  Unit Annotation: "h"
  Numeric Result: 4
- Compound: "O=C1CCC(N2C(=O)c3cc4c(cc3C2=O)CN(CC2CCN(CC3CCN(c5ccc([C@@H]6c7ccc(O)cc7CC[C@@H]6c6ccccc6)cc5)CC3)CC2)C4)C(=O)N1 (some centres not stated)"
  Unit Annotation: "h"
  Numeric Result: 16
- Compound: "CN1Cc2cc3c(cc2C1)C(=O)N(C1CCC(=O)NC1=O)C3=O (configuration not stated)"
  Unit Annotation: "h"
  Numeric Result: 1.8

Query O=C1CCC(N2C(=O)c3cc4c(cc3C2=O)CN(CC(=O)N2CCC3(CC2)CCN(c2ccc([C@@H]5c6ccc(O)cc6CC[C@@H]5c5ccccc5)cc2)CC3)C4)C(=O)N1 (some centres not stated) yields half-life at 24 h of 2.5

Query O=C1CCC(N2C(=O)c3cc4c(cc3C2=O)CN(C2CCN(C(=O)C3CCN(c5ccc([C@@H]6c7ccc(O)cc7CC[C@@H]6c6ccccc6)cc5)CC3)CC2)C4)C(=O)N1 (some centres not stated) yields half-life at 24 h of 2.7

Query O=C1CCC(N2C(=O)c3cc4c(cc3C2=O)CN(C2CCN(CC3CCN(c5ccc([C@@H]6c7ccc(O)cc7CC[C@@H]6c6ccccc6)cc5)CC3)CC2)C4)C(=O)N1 (some centres not stated) yields half-life at 24 h of 4

Query C[C@@H]1Cc2c(ccc3[nH]ncc23)[C@@H](c2ccc(N3CCC4(CCN(C(=O)CN5Cc6cc7c(cc6C5)C(=O)N(C5CCC(=O)NC5=O)C7=O)CC4)CC3)cn2)N1CC(F)(F)F (some centres not stated) yields half-life at 24 h of 2.3
